# ASSAY_SYSTEM: hSTING(H232) (Homo sapiens)
# Sequence (Q86WV6 whole entry): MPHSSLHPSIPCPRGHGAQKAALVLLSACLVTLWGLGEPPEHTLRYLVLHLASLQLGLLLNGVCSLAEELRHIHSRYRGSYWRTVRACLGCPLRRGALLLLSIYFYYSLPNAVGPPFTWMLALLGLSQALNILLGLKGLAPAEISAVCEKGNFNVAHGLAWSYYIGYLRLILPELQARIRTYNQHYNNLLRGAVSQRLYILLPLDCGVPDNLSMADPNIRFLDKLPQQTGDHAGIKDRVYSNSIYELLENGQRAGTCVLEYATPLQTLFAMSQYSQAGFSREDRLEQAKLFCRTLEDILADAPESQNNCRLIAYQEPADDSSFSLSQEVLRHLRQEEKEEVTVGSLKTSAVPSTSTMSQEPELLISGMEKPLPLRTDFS
# EXPERIMENTAL_PROTOCOL: Luciferase reporter assay in HEK293T-hSTING-Luciferase cells, H232 polymorph
# CONDITIONS: 20 hr stimulation, read-out: H232 activity (EC50 range)
Listed next: entries and their corresponding EC50.

Cc1ccc(CNC(=O)c2ccc3c(n2)N(Cc2cc(F)cc(F)c2)C(=O)C(C)S3)o1 (stereo not shown) [Example 190]    1 to 10 µM
C[C@H]1Oc2ccc(C(=O)NCc3c(F)cc(F)cc3F)cc2N(Cc2cc(F)cc(F)c2)C1=O [Example 242]    > 10 µM
O=C(NCc1ccc(F)cc1)c1ccc2c(c1)N(Cc1c(F)cccc1Cl)C(=O)CC2    > 10 µM
Cc1ccc(CNC(=O)c2cnc3c(c2)N(Cc2c(F)cccc2Cl)C(=O)C(C)S3)o1 (stereo not shown)    1 to 10 µM
CC1Sc2ncc(C(=O)NCc3ccccc3)cc2N(Cc2c(F)cccc2Cl)C1=O (stereo not shown)    1 to 10 µM

As a next step, examine the molecule that follows.
Sample `O=C(NCc1ccco1)c1ccc2c(n1)N(Cc1c(F)cccc1Cl)C(=O)CS2` ; EC50 observed: > 10 µM

Cited source for all entries: patent US20200138827A1
